experiment: AUC in Zucker fa/fa rat at 30 mg/kg, po; type: ADME, organism-based; design: dose 30 mg/kg, route oral; details: plasma
readout_type: AUC (ng·h/mL)
One number for each entry, in ng·h/mL.

For this molecule ( CCCCn1c(-c2ccc3nn(CCC)c(Cc4ccc(-c5ccccc5-c5nn[nH]n5)cc4)c3c2)nc2ccccc21 ), measured AUC is 36300

---

I'd be grateful if you could share measured IC50 for these entries.
Molecular target: Type-1 angiotensin II receptor (Homo sapiens, UniProt P30556)
Sequence (P30556 whole entry): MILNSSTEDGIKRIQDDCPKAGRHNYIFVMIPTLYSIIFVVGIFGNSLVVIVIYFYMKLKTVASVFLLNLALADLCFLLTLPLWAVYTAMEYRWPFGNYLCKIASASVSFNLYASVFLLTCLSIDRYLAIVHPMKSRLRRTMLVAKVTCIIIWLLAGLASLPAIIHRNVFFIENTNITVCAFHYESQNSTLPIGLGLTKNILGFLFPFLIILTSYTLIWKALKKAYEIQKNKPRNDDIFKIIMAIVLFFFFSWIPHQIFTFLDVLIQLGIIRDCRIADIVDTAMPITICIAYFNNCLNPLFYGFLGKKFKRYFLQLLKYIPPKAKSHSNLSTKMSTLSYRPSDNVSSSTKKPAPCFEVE
Experiment: Antagonist activity at human AT1 receptor expressed in CHO cells measured after overnight incubation by luciferase reporter gene assay

[
  {
    "compound": "CCC(NC(=O)c1ccc2c(c1)c(C)c(C)n2Cc1ccc(-c2ccccc2C(=O)O)cc1)c1ccccc1 (stereo not given)",
    "reported_measurement": "> 10 µM"
  },
  {
    "compound": "CCCc1[nH]c2cc(C(=O)NC(CC)c3ccccc3)ccc2c1Cc1ccc(-c2ccccc2C(=O)O)cc1 (stereo not given)",
    "reported_measurement": "> 10 µM"
  },
  {
    "compound": "CCCc1c(Cc2ccc(-c3ccccc3C(=O)O)cc2)c2cc(C(=O)NC(CC)c3ccccc3)ccc2n1OC (stereo not given)",
    "reported_measurement": "> 10 µM"
  },
  {
    "compound": "CCCCn1c(-c2ccc3nn(CCC)c(Cc4ccc(-c5ccccc5-c5nn[nH]n5)cc4)c3c2)nc2ccccc21",
    "reported_measurement": "0.006 µM"
  }
]

Proceed to the following item.
For this compound ( CCCc1c(Cc2ccc(-c3ccccc3C(=O)O)cc2)c2ccc(C(=O)NC(CC)c3ccccc3)cc2n1C (stereo not given) ), measured IC50 is > 10 µM

---

Target: Peroxisome proliferator-activated receptor gamma (Homo sapiens)
Sequence (P37231 whole entry): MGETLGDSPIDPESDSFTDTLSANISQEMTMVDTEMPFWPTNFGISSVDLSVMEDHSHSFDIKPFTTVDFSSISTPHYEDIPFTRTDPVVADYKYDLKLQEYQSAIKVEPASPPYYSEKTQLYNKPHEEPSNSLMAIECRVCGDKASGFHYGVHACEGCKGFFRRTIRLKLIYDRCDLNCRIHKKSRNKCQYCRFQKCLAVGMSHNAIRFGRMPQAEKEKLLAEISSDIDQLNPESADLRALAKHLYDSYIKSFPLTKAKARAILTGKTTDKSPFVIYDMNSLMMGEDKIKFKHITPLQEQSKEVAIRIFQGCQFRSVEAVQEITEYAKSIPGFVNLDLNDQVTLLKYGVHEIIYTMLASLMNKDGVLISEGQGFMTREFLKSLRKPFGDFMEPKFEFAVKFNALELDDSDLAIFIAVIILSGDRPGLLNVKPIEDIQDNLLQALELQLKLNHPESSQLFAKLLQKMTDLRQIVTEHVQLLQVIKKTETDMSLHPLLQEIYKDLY
Assay: Agonist activity at human PPARgamma expressed in CV-1 cells by reporter gene assay
Assay type: cell-based
pEC50: −log10 of the molar value.
Threshold check on pEC50: at or above 7 gives Criterion met, strictly below gives Criterion not met.

Here's what some known entries look like.
[
  {
    "molecule": "CCCc1[nH]c2ccc(C(=O)NC(CC)c3ccccc3)cc2c1Cc1ccc(-c2ccccc2C(=O)O)cc1 (centres undefined)",
    "test_system": "Peroxisome proliferator-activated receptor gamma (Homo sapiens)",
    "category": "Criterion not met"
  },
  {
    "molecule": "CCCCn1c(-c2ccc3nn(CCC)c(Cc4ccc(-c5ccccc5C(=O)O)cc4)c3c2)nc2ccccc21",
    "test_system": "Peroxisome proliferator-activated receptor gamma (Homo sapiens)",
    "category": "Criterion not met"
  },
  {
    "molecule": "CCCc1[nH]c2cc(C(=O)NC(CC)c3ccccc3)ccc2c1Cc1ccc(-c2ccccc2C(=O)O)cc1 (centres undefined)",
    "test_system": "Peroxisome proliferator-activated receptor gamma (Homo sapiens)",
    "category": "Criterion met"
  },
  {
    "molecule": "CCCc1nc2cc(C(=O)NC(CC)c3ccccc3)ccc2n1Cc1ccc(-c2ccccc2C(=O)O)cc1 (centres undefined)",
    "test_system": "Peroxisome proliferator-activated receptor gamma (Homo sapiens)",
    "category": "Criterion not met"
  },
  {
    "molecule": "CCCc1c(Cc2ccc(-c3ccccc3C(=O)O)cc2)c2ccc(C(=O)NC(CC)c3ccccc3)cc2n1C (centres undefined)",
    "test_system": "Peroxisome proliferator-activated receptor gamma (Homo sapiens)",
    "category": "Criterion met"
  },
  {
    "molecule": "CCCc1nn2ccc(C(=O)NC(CC)c3ccccc3)cc2c1Cc1ccc(-c2ccccc2C(=O)O)cc1 (centres undefined)",
    "test_system": "Peroxisome proliferator-activated receptor gamma (Homo sapiens)",
    "category": "Criterion not met"
  }
]

Could you now consider this next molecule?
QUERY: # check: pEC50 of CCCc1nn2ccc(-c3nc4ccccc4n3CCC)cc2c1Cc1ccc(-c2ccccc2C(=O)O)cc1 is greater than or equal to 7
RESULT: Criterion not met
